# Tested on: HEK293
# Test Description: Selectivity for binding affinity towards A1 adenosine receptor in rat brain membrane and human A3 receptor expressed in HEK cells
# Type: cell-based
Assay Metric: Ratio

Compound: CCOC(=O)c1c(-c2cccc(Cl)c2)nc(CC)c(C(=O)SCC)c1CC
Assay Metric: Ratio
Readout Qualifier: =
Endpoint Result: 610
--
Compound: CCOC(=O)C1=C(c2ccccc2)N=C(C)/C(=C(/O)SCCOC)C1CC (stereo unspecified)
Assay Metric: Ratio
Readout Qualifier: >
Endpoint Result: 10
--
Compound: CCCOC(=O)c1c(C)nc(-c2ccccc2)c(C(=O)OCC)c1C
Assay Metric: Ratio
Readout Qualifier: =
Endpoint Result: 23
--
Compound: CCOC(=O)C1=C(c2ccccc2)N=C(C)/C(=C(/O)OCC)C1C(OC)OC (stereo unspecified)
Assay Metric: Ratio
Readout Qualifier: >
Endpoint Result: 5
--
Compound: CCOC(=O)c1c(-c2ccccc2)nc(C)c(C(=O)SCCOC)c1CC
Assay Metric: Ratio
Readout Qualifier: >
Endpoint Result: 500
--
Compound: CCOC(=O)c1c(C2CCCC2)nc(CC)c(C(=O)SCC)c1CC
Assay Metric: Ratio
Readout Qualifier: =
Endpoint Result: 16
--
Compound: CCCOC(=O)c1c(-c2ccccc2)nc(CC)c(C(=O)SCC)c1CC
Assay Metric: Ratio
Readout Qualifier: =
Endpoint Result: 940
--
Compound: CCOC(=O)c1c(C)nc(-c2ccccc2)c(C(=O)OCC)c1C(OC)OC
Assay Metric: Ratio
Readout Qualifier: =
Endpoint Result: 2.5
--
Compound: CCOC(=O)C1=C(c2ccccc2)N=C(CC)/C(=C(/O)SCC)C1CC (stereo unspecified)
Assay Metric: Ratio
Readout Qualifier: >
Endpoint Result: 50
--
Compound: CCOC(=O)c1c(C)nc(-c2ccccc2)c(C(=O)OCC)c1C=O
Assay Metric: Ratio
Readout Qualifier: =
Endpoint Result: 4.8
--
Compound: CCOC(=O)c1c(-c2ccccc2)nc(C)c(C(=O)SCC)c1CC
Assay Metric: Ratio
Readout Qualifier: =
Endpoint Result: 340
--
Compound: CCCOC(=O)c1c(-c2ccccc2)nc(CC)c(C(=O)SCC)c1CCC
Assay Metric: Ratio
Readout Qualifier: =
Endpoint Result: 830
--
Compound: CCOC(=O)c1c(C)nc(-c2ccccc2)c(C(=O)OCC)c1CC
Assay Metric: Ratio
Readout Qualifier: =
Endpoint Result: 19
--
Compound: CCOC(=O)c1c(C)nc(-c2ccccc2)c(C(=O)OCc2ccccc2)c1C#Cc1ccccc1
Assay Metric: Ratio
Readout Qualifier: =
Endpoint Result: 4.2
--
Compound: CCOC(=O)c1c(-c2ccccc2)nc(CC)c(C(=O)O)c1CC
Assay Metric: Ratio
Readout Qualifier: =
Endpoint Result: 3.3
--
Compound: CCOC(=O)c1c(C)nc(C2CCCC2)c(C(=O)OCc2ccccc2)c1C#Cc1ccccc1
Assay Metric: Ratio
Readout Qualifier: =
Endpoint Result: 15
--
Compound: CCOC(=O)C1=C(C)NC(C2CCCC2)=C(C(=O)OCc2ccccc2)C1C#Cc1ccccc1 (stereo unspecified)
Assay Metric: Ratio
Readout Qualifier: =
Endpoint Result: 340
--
Compound: CCOC(=O)c1c(-c2ccccc2)nc(CCOC)c(C(=O)SCC)c1CC
Assay Metric: Ratio
Readout Qualifier: =
Endpoint Result: 600
--
Compound: CCOC(=O)c1c(CC)nc(-c2ccccc2)c(C(=O)OCC)c1C
Assay Metric: Ratio
Readout Qualifier: =
Endpoint Result: 85
--
Compound: CCSC(=O)c1c(C)nc(-c2ccccc2)c(C(=O)Oc2ccccc2)c1CC
Assay Metric: Ratio
Readout Qualifier: >
Endpoint Result: 40
--
Compound: CCCc1nc(-c2ccccc2)c(C(=O)OCC)c(CC)c1C(=O)SCC
Assay Metric: Ratio
Readout Qualifier: =
Endpoint Result: 500
